experimental.parameters: 322.41 K; 101.33 kPa; Liquid; Vibrating tube method
Let's look at some compounds and their measured mass density.
measured.endpoint: mass density (kg/m3)

INSERT INTO assay_data (compound, measured_endpoint, result_units, recorded_result) VALUES
  ('CCC(=O)[O-].C[NH2+]CCO [2-hydroxy-N-methylethanaminium propionate]', 'mass density', 'kg/m3', 1055.32),
  ('CC(C)C(=O)[O-].C[NH2+]CCO [2-hydroxy-N-methylethanaminium isobutyrate]', 'mass density', 'kg/m3', 1027.54),
  ('CCCC(=O)[O-].C[NH2+]CCO [N-methyl-2-hydroxyethylammonium butanoate]', 'mass density', 'kg/m3', 1022.78),
  ('C[NH2+]CCO.O=C[O-] [2-hydroxy-N-methylethanaminium formate]', 'mass density', 'kg/m3', 1114.75),
  ('CC(=O)[O-].C[NH2+]CCO [N-methyl-2-hydroxyethylammonium acetate]', 'mass density', 'kg/m3', 1086.08),
  ('CCCCC(=O)[O-].C[NH2+]CCO [2-hydroxy-N-methylethanaminium pentanoate]', 'mass density', 'kg/m3', 999.756);

* * *

experimental.parameters: 279.65 K; 101.33 kPa; Liquid; Pulse-echo method
measured.endpoint: speed of sound (m/s)

INSERT INTO assay_data (compound, recorded_result) VALUES
  ('CC(C)C(=O)[O-].C[NH2+]CCO [2-hydroxy-N-methylethanaminium isobutyrate]', 1665.4),
  ('CCCC(=O)[O-].C[NH2+]CCO [N-methyl-2-hydroxyethylammonium butanoate]', 1677.7),
  ('CCCCC(=O)[O-].C[NH2+]CCO [2-hydroxy-N-methylethanaminium pentanoate]', 1611),
  ('C[NH2+]CCO.O=C[O-] [2-hydroxy-N-methylethanaminium formate]', 1851.7),
  ('CCC(=O)[O-].C[NH2+]CCO [2-hydroxy-N-methylethanaminium propionate]', 1747.3);

* * *

# mass density values compiled below
experimental.parameters: 283.9 K; 101.33 kPa; Liquid; Vibrating tube method
measured.endpoint: mass density (kg/m3)

INSERT INTO results (compound, result_units, recorded_result) VALUES
  ('CC(C)C(=O)[O-].C[NH2+]CCO [2-hydroxy-N-methylethanaminium isobutyrate]', 'kg/m3', 1052.43),
  ('CC(=O)[O-].C[NH2+]CCO [N-methyl-2-hydroxyethylammonium acetate]', 'kg/m3', 1109.38),
  ('CCCC(=O)[O-].C[NH2+]CCO [N-methyl-2-hydroxyethylammonium butanoate]', 'kg/m3', 1048.85),
  ('C[NH2+]CCO.O=C[O-] [2-hydroxy-N-methylethanaminium formate]', 'kg/m3', 1136.21),
  ('CCC(=O)[O-].C[NH2+]CCO [2-hydroxy-N-methylethanaminium propionate]', 'kg/m3', 1080.56),
  ('CCCCC(=O)[O-].C[NH2+]CCO [2-hydroxy-N-methylethanaminium pentanoate]', 'kg/m3', 1025.84);

* * *

experimental.parameters: 333.66 K; 101.33 kPa; Liquid; Pulse-echo method
Below, each entry is listed with its recorded speed of sound.
measured.endpoint: speed of sound (m/s)

INSERT INTO measurements (compound, result_units, recorded_result) VALUES
  ('CCCCC(=O)[O-].C[NH2+]CCO [2-hydroxy-N-methylethanaminium pentanoate]', 'm/s', 1439.3),
  ('CCC(=O)[O-].C[NH2+]CCO [2-hydroxy-N-methylethanaminium propionate]', 'm/s', 1584.2),
  ('C[NH2+]CCO.O=C[O-] [2-hydroxy-N-methylethanaminium formate]', 'm/s', 1746.6),
  ('CCCC(=O)[O-].C[NH2+]CCO [N-methyl-2-hydroxyethylammonium butanoate]', 'm/s', 1503.3),
  ('CC(C)C(=O)[O-].C[NH2+]CCO [2-hydroxy-N-methylethanaminium isobutyrate]', 'm/s', 1510.5);
